# system: TRAP1 enzyme (Homo sapiens)
# Construct: 150 nM Trap1 enzyme was incubated with various concentrations of the test compound
# Sequence (Q12931 60-704): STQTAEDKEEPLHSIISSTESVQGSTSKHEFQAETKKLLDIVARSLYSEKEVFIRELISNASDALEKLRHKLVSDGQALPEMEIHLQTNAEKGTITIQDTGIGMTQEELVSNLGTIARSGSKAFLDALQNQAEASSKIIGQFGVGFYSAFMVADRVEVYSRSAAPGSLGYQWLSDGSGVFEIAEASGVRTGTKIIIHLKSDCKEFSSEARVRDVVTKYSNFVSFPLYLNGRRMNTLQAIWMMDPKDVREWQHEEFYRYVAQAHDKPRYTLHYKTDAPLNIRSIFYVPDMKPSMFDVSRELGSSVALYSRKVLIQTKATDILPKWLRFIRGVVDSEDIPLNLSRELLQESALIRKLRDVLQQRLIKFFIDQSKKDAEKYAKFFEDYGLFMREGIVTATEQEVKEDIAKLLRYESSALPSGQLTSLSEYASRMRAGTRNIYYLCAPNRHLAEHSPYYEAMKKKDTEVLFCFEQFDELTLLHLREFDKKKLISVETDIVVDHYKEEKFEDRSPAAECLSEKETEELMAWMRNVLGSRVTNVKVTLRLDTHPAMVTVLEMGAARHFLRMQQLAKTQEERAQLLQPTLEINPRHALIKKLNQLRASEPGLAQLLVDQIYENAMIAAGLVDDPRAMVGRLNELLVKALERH
# assay_name: ADP Glo assay of TRAP1 ATPase activity
# Type: biochemical
# measurement_conditions: 1 h; compound concentration 50 μM; read-out: ADP-Glo Percent Activation at 50 μM
measured_attribute: activation at 50 µM

Reference set (6 entries):
| chemical_string | reported_result |
| --- | --- |
| COc1ncc(NC(=O)c2ccccc2[S@+](C)[O-])cc1S(=O)(=O)Nc1c(C)cccc1C | 151 to 180% |
| COc1ncc(NC(=O)c2c(C)noc2C)cc1S(=O)(=O)Nc1c(C)cccc1C | 151 to 180% |
| COc1ncc(NC(=O)c2cc(C)on2)cc1S(=O)(=O)Nc1c(C)cccc1C | 151 to 180% |
| COc1ncc(NC(=O)c2cccn3cnnc23)cc1S(=O)(=O)Nc1c(C)cccc1C | 181 to 352% |
| COc1ncc(NC(=O)c2nnsc2C)cc1S(=O)(=O)Nc1c(C)cccc1C | 151 to 180% |
| CCN1CCN(c2ccc(C(=O)Nc3cnc(OC)c(S(=O)(=O)Nc4c(C)cccc4C)c3)cc2)CC1 | 181 to 352% |

Input: Return value of activation at 50 µM for input COc1ncc(NC(=O)c2cnn3c2OCCC3)cc1S(=O)(=O)Nc1c(C)cccc1C , no commentary.
Output: 120 to 150%

Input: Return value of activation at 50 µM for input COc1ncc(NC(=O)c2nc(C(F)(F)F)cs2)cc1S(=O)(=O)Nc1c(C)cccc1C , no commentary.
Output: 151 to 180%

Input: Return value of activation at 50 µM for input COc1ncc(NC(=O)c2ccc(N3CCN(C)CC3)cc2)cc1S(=O)(=O)Nc1c(C)cccc1C , no commentary.
Output: 181 to 352%

Input: Return value of activation at 50 µM for input COc1ncc(NC(=O)c2onc3c2CCCC3)cc1S(=O)(=O)Nc1c(C)cccc1C , no commentary.
Output: 120 to 150%
